meta.source: patent US4912223A

system: Systolic arterial blood pressure; test: Hypotensive Activity (oral), indirect tail cuff method in spontaneous hypertensive rats (SHR); type: in vivo, spontaneous hypertensive rates (SHR); conditions: 10 mmol/Kg in polyethylene glycol, 60 min
RECORDED ENDPOINT: Mean Change (Decrease) in Systolic Blood Pressure, 60 min after drug administration

Some entries whose results are on file:
>  <MOLECULE>
CC1=C(C(=O)OCC2COC(C)(C)O2)C(c2cccc([N+](=O)[O-])c2)C(C(=O)OCC2COC(C)(C)O2)=C(C)N1 (stereo not shown)

>  <TARGET DESC>
Systolic arterial blood pressure

>  <OBSERVED VALUE>
13 mm Hg

$$$$
>  <MOLECULE>
COC(=O)C1=C(C)NC(C)=C(C(=O)OC)C1c1ccccc1[N+](=O)[O-] [Nifedipine, nifedipine, reference compound]

>  <TARGET DESC>
Systolic arterial blood pressure

>  <OBSERVED VALUE>
20 mm Hg

$$$$
>  <MOLECULE>
COC(=O)C1=C(C)NC(C)=C(C(=O)OCC(O)CO)C1c1cccc([N+](=O)[O-])c1 (stereo not shown)

>  <TARGET DESC>
Systolic arterial blood pressure

>  <OBSERVED VALUE>
18 mm Hg

$$$$

Moving on to another molecule below.
Would you kindly share the measured Mean Change (Decrease) in Systolic Blood Pressure, 60 min after drug administration for COC(=O)C1=C(C)NC(C)=C(C(=O)OCC2OC(=O)C3OC(C)(C)OC23)C1c1cccc([N+](=O)[O-])c1 (stereo not shown) ?
31 mm Hg

----------
molecular target: DHP Site of the Calcium Channel (Oryctolagus cuniculus, UniProt P07293); construct: Washed rabbit skeletal muscle membranes (fraction 2-8X); experiment: Binding Assay for Drugs Acting at the DHP Site of the Calcium Channel (3H-nitrendipine displacement); details: washed rabbit skeletal muscle membranes, 0.5×10^-9 M 3H-nitrendipine, 30 min, 25° C., pH 7.4
Sequence (P07293 1-1664 limits assumed): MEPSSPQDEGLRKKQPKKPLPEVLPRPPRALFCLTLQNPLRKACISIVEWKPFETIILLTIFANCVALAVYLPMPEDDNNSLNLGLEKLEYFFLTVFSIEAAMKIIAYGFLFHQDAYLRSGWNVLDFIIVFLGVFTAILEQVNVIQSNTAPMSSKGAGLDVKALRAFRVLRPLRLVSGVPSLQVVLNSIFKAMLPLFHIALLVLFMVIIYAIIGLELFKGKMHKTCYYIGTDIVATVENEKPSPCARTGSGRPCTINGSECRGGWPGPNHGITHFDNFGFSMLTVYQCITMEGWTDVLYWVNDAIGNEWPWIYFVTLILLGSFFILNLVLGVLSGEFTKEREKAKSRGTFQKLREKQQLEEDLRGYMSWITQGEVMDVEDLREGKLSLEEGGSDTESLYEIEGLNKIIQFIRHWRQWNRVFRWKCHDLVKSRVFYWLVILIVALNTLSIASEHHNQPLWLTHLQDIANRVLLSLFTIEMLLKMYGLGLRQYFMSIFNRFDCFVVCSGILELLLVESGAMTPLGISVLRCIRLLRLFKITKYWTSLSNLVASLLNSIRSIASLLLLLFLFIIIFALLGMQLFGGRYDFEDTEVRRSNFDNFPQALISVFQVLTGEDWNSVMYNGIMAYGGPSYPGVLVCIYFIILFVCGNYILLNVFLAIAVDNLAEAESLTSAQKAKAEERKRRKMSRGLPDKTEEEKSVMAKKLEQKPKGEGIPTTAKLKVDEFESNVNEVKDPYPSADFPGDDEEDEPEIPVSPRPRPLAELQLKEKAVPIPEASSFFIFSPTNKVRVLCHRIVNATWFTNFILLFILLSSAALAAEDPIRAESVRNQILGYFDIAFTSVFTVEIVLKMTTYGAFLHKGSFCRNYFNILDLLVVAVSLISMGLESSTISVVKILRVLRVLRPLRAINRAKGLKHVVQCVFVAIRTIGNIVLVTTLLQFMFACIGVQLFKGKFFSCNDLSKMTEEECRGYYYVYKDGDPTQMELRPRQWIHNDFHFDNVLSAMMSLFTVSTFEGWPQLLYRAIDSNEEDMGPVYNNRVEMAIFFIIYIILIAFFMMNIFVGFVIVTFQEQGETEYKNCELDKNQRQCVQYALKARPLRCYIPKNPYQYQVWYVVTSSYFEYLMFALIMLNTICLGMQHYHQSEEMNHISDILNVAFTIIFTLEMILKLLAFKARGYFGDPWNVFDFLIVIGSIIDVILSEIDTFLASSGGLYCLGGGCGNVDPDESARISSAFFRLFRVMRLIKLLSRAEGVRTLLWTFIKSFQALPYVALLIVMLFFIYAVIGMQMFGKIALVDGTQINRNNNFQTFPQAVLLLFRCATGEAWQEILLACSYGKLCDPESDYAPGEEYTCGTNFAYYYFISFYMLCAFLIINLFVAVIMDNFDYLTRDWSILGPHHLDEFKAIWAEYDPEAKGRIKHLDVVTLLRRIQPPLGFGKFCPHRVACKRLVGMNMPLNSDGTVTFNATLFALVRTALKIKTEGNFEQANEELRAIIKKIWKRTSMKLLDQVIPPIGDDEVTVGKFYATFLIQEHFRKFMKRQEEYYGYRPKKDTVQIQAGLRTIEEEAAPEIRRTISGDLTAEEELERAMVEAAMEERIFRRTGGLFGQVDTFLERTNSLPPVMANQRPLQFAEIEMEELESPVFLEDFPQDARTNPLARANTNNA
Sequence (P13806 27-960 partner limits assumed): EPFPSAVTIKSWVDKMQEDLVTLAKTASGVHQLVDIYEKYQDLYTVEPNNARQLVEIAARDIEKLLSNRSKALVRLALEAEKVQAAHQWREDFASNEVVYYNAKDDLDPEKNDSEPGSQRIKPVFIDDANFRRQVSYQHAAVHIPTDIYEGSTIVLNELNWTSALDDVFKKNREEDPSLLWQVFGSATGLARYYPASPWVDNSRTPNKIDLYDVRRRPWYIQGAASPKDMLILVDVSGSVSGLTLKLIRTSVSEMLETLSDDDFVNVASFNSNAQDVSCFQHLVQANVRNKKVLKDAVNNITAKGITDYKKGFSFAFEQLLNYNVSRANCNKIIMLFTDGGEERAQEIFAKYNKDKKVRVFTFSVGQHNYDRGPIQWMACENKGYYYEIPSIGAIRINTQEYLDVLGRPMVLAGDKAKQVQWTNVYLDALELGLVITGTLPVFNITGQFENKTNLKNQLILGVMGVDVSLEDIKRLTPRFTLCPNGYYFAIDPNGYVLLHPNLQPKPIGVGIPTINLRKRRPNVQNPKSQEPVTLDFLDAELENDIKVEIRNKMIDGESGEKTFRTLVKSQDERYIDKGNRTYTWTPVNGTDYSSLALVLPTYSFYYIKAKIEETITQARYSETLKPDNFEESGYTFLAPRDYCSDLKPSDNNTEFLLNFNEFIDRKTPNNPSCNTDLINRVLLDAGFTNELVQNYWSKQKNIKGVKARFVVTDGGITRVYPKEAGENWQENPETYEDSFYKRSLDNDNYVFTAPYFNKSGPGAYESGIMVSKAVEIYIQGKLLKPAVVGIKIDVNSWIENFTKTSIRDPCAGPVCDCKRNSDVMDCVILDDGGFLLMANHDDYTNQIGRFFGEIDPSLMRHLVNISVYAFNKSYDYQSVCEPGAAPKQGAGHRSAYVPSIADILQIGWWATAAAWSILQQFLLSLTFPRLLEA
Sequence (P13806 961-1106 partner limits assumed): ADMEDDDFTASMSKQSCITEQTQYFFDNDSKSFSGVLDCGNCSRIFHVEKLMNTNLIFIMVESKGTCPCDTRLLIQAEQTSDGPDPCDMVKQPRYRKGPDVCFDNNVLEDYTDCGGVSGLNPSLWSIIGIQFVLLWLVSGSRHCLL
Sequence (P19517 whole entry partner): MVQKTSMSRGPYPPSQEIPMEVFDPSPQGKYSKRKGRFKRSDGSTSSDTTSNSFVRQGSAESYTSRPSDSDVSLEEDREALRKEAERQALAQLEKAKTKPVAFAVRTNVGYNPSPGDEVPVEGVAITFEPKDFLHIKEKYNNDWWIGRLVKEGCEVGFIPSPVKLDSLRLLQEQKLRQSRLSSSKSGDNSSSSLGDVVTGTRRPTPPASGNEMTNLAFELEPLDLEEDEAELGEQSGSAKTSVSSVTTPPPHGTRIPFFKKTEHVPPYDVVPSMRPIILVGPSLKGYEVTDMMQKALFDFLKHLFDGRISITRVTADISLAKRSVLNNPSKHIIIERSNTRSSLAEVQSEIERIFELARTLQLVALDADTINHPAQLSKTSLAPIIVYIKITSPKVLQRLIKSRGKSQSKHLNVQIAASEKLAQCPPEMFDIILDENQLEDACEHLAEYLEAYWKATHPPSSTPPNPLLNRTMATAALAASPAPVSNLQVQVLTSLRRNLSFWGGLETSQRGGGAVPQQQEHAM
Sequence (P19518 whole entry partner): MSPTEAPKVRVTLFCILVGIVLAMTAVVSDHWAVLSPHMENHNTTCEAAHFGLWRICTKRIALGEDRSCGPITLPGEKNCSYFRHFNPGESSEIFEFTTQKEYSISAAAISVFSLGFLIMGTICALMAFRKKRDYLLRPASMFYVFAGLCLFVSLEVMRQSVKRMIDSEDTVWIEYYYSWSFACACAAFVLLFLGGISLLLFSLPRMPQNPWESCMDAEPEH
log10 of Ki values, listed per item
In plain terms, each number is the log10 of measured Ki in nM.

Some entries whose results are on file:
>  <MOLECULE>
CC1=C(C(=O)OCC2COC(C)(C)O2)C(c2cccc([N+](=O)[O-])c2)C(C(=O)OCC2COC(C)(C)O2)=C(C)N1 (stereo not drawn)

>  <TARGET DESC>
DHP Site of the Calcium Channel (Oryctolagus cuniculus, UniProt P07293)

>  <log10 of Ki>
1.46

$$$$
>  <MOLECULE>
COC(=O)C1=C(C)NC(C)=C(C(=O)OCC2OC(=O)C3OC(C)(C)OC23)C1c1cccc([N+](=O)[O-])c1 (stereo not drawn)

>  <TARGET DESC>
DHP Site of the Calcium Channel (Oryctolagus cuniculus, UniProt P07293)

>  <log10 of Ki>
1.48

$$$$
>  <MOLECULE>
COC(=O)C1=C(C)NC(C)=C(C(=O)OCC2COC(C)(C)O2)C1c1cccc([N+](=O)[O-])c1 (stereo not drawn)

>  <TARGET DESC>
DHP Site of the Calcium Channel (Oryctolagus cuniculus, UniProt P07293)

>  <log10 of Ki>
0.65

$$$$
>  <MOLECULE>
COC(=O)C1=C(C)NC(C)=C(C(=O)OCC(O)CO)C1c1cccc([N+](=O)[O-])c1 (stereo not drawn)

>  <TARGET DESC>
DHP Site of the Calcium Channel (Oryctolagus cuniculus, UniProt P07293)

>  <log10 of Ki>
2.15

$$$$

Would you kindly share the measured log10 of Ki for CC1=C(C(=O)OCC2OC(=O)C3OC(C)(C)OC23)C(c2cccc([N+](=O)[O-])c2)C(C(=O)OCC2OC(=O)C3OC(C)(C)OC23)=C(C)N1 (stereo not drawn) ?
1.97

Same question for COC(=O)C1=C(C)NC(C)=C(C(=O)OCC2COC3(CCCC3)O2)C1c1cccc([N+](=O)[O-])c1 (stereo not drawn) please.
0.36
